// provenance: the supplement of paper PMC13380429

system: Calu-3; test: cell viability relative to DMSO; higher = less toxic; settings: 72 h; 10000 nM
observation-type: cell viability (%)

INSERT INTO assay_data (molecule, measured_number) VALUES
  ('Nc1ccc(C(=O)O)cc1 [potassium-p-aminobenzoate]', 103),
  ('O=C1NCC2(CCN(CCc3ccccc3)CC2)O1 [fenspiride]', 98.9),
  ('O=C(NCc1ccc2c(c1)OCO2)c1c(Cl)cccc1Cl [alda-1]', 108),
  ('CN1CCN(C(=O)O[C@H]2c3nccnc3C(=O)N2c2ccc(Cl)cn2)CC1 [ESZOPICLONE]', 99.6),
  ('O=C(/C=C\n1cnc(-c2cc(C(F)(F)F)cc(C(F)(F)F)c2)n1)N1CC(F)(F)C1 [KPT-276]', 68.3),
  ('Clc1cccc(SC2CCNCC2)n1 [anpirtoline]', 114),
  ('c1cc2c(cc1[C@H]1OC[C@H]3[C@@H]1CO[C@@H]3c1ccc3c(c1)OCO3)OCO2 [sesamin]', 90.1),
  ('CNC(=O)c1ccc2c(c1)S(=O)(=O)c1ccccc1C2=O [BW-616U]', 96.7),
  ('C=CCc1cc(OC)c(O)c(C(=O)NCCO)c1 [alibendol]', 101),
  ('NCCOB(c1ccccc1)c1ccccc1 [2-APB]', 103);
